# Assay System: T1, VEGFR-2-Fc (UniProt P35968 20-322)
# T1 construct: domain: first 3 Ig domains; conditioned supernatant of 293T cells; also called VEGFR-2-Fc fusion protein; not shown: Fc fragment of the pIg vector
# T1 sequence (P35968 20-322): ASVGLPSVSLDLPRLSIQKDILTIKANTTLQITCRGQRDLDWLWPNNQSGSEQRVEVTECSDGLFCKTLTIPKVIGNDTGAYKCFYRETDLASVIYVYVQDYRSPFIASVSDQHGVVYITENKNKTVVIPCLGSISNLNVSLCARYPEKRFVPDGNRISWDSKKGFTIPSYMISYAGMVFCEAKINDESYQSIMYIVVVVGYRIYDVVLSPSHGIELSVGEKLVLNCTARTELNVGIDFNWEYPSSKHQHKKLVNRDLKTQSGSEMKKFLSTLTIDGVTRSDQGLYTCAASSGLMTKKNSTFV
# Experimental Details: receptor-Fc IP
Assay Metric: binding result

Binder: 24-14 (ligand) AHYNTEILKSIDNEWRKTQCMPREVCIDVGKEFGVATNTFFKPSCVPLMRCGGCCNDEGLECMNTSTSYLSKTLFEITVPLSQGPKPVTISFANHTSCRCMSKLD
Measured Result: no binding

Binder: 34-1 (ligand) GQNHHEVVKSIDNEWRKTQCMPIETLVDIFQEFGVATNTFFKPSCVPLMRCGGCCNDEGLECVPTEESNITMQIMRIKPHQGQHIGEMSFLQHNKCECRPKKD
Measured Result: no binding

Binder: 33-15 (ligand) GQNHHEVVKSIDNEWRKTQCMPIETLVDIFQEYPDEIEYIFKPPCVSVYRCGGCCNSEGLQCVPTEESNITMQIMRITVPLSQGPKPVTISFANHTSCRCMSKLD
Measured Result: no binding

Entry source: patent US20080058263A1
